FYI, the data here is from patent US20210130401A1.

Target: WDR5 (Homo sapiens)
Construct: N-terminal His-tagged WDR5 protein (residues 24-334), named WDR5Δ23; made in house; host or cells: E. coli Rosetta 2 (DE3)
Assay: fluorescence polarization (FP) based competitive binding assay to WDR5 protein
pIC50: −log10 of the molar value. Starred links: 1 amine or outer side, 2 acyl side, 3 side chain; linkers in the order of their positions; H or OH if unused. Positions of bridges follow the written chain, without caps; N, C: chain ends. Non-standard residues stand in square brackets, D forms with d. Residues, ends and D or L forms follow the SMILES beside them. *: point of attachment. dαMeLys(Me) = CN(CCCC[C@@](C)(N[*:1])C(=O)[*:2])[*:3]; dαMeDab = C[C@](CCN[*:3])(N[*:1])C(=O)[*:2]; dPhg(4-F) = N[C@@H](C(=O)O)c1ccc(F)cc1; dPhg = N[C@@H](C(=O)O)c1ccccc1; Isobutyryl = CC(C)C(=O)*; Abu = CC[C@H](N)C(=O)O
Known pIC50 of a selection of molecules

- molecule: "CC[C@@H]1NC(=O)[C@H](CCCNC(=N)N)NC(=O)[C@](C)(NC(=O)C(C)C)CCCCN(C)C(=O)[C@@H](c2ccc(F)cc2)NC1=O [Cpd. No. 66] (Isobutyryl-[dαMeLys(Me)]R[Abu][dPhg(4-F)]; lactam 1-C)"
  pIC50: 8.80
- molecule: "CC[C@@H]1NC(=O)[C@H](CCCNC2=NCCCN2)NC(=O)[C@](C)(NC(=O)C(C)C)CCNC(=O)[C@@H](c2ccc3ccccc3c2)NC1=O [Cpd. No. 98]"
  pIC50: 8.59
- molecule: "CC[C@@H]1NC(=O)[C@H](CCCNC(=N)N)NC(=O)[C@](C)(NC(=O)C(C)C)CCCCCCNC(=O)[C@@H](c2ccccc2)NC1=O [Cpd. No. 76]"
  pIC50: 9.00
- molecule: "CC[C@@H]1NC(=O)[C@H](CCCNC(=N)N)NC(=O)[C@](C)(NC(=O)C(C)C)CCCCN(C)C(=O)[C@@H](c2ccc(Cl)cc2)NC1=O [Cpd. No. 67]"
  pIC50: 8.82
- molecule: "CC[C@@H]1NC(=O)[C@H](CCCNC(=N)NC(C)=O)NC(=O)[C@](C)(NC(=O)C(C)C)CCNC(=O)[C@@H](c2ccccc2)NC1=O [Cpd. No. 91] (Isobutyryl-[dαMeDab]R(Ac)[Abu][dPhg]; lactam 1-C)"
  pIC50: 8.44

* * *

Reported IC50 values follow for various molecules
Molecular target: WDR5 (Homo sapiens)
Construct: N-terminal His-tagged WDR5 protein (residues 24-334), named WDR5Δ23; made in house; host or cells: E. coli Rosetta 2 (DE3)
Experiment: fluorescence polarization (FP) based competitive binding assay to WDR5 protein
Conditions: read-out: Binding Affinity to WDR5 IC50 ± SD
Starred links: 1 amine or outer side, 2 acyl side, 3 side chain; linkers in the order of their positions; H or OH if unused. Positions of bridges follow the written chain, without caps; N, C: chain ends. Non-standard residues stand in square brackets, D forms with d. Residues, ends and D or L forms follow the SMILES beside them. *: point of attachment. dαMeDab = C[C@](CCN[*:3])(N[*:1])C(=O)[*:2]; Arg(Me) = CNC(=N)NCCC[C@H](N)C(=O)O; dPhg = N[C@@H](C(=O)O)c1ccccc1; Phg = N[C@H](C(=O)O)c1ccccc1; dDab = NCC[C@@H](N)C(=O)O; Isobutyryl = CC(C)C(=O)*; dDap = NC[C@@H](N)C(=O)O; Abu = CC[C@H](N)C(=O)O
assay-endpoint: IC50 (nM)

- molecule: "CC[C@@H]1NC(=O)[C@H](CCCNC(=N)NC)NC(=O)[C@](C)(NC(=O)C(C)C)CCNC(=O)[C@H](c2ccccc2)NC1=O [Cpd. No. 62] (Isobutyryl-[dαMeDab][Arg(Me)][Abu][Phg]; lactam 1-C)"
  scale-unit: "nM"
  measurement: 2
- molecule: "CC[C@@H]1NC(=O)[C@H](CCCNC(=N)N)NC(=O)[C@H](NC(=O)C(C)C)CNC(=O)[C@@H](c2ccccc2)NC1=O [Cpd. No. 71] (Isobutyryl-[dDap]R[Abu][dPhg]; lactam 1-C)"
  scale-unit: "nM"
  measurement: 1190
- molecule: "CC[C@@H]1NC(=O)[C@H](CCCNC(=N)N)NC(=O)[C@](C)(NC(=O)C(C)C)CCCCCNC(=O)[C@@H](c2ccccc2)NC1=O [Cpd. No. 75]"
  scale-unit: "nM"
  measurement: 2.6
- molecule: "CC[C@@H]1NC(=O)[C@H](CCCNC(=N)N)NC(=O)[C@H](NC(=O)C(C)C)CCNC(=O)[C@@H](c2ccccc2)NC1=O [Cpd. No. 1] (Isobutyryl-[dDab]R[Abu][dPhg]; lactam 1-C)"
  scale-unit: "nM"
  measurement: 6.2
- molecule: "CC[C@@H]1NC(=O)[C@H](CCCNC(=N)N)NC(=O)[C@](C)(NC(=O)C(C)C)CCNC(=O)[C@@H](c2ccccc2)NC1=O [Cpd. No. 4] (Isobutyryl-[dαMeDab]R[Abu][dPhg]; lactam 1-C)"
  scale-unit: "nM"
  measurement: 1.08
